Header: IC50 / Stromelysin-1 (Homo sapiens) / multiple publications
Mark each entry label 1 if its IC50 sits below 2 µM, and label 0 for all others.

- Molecule: "Cc1ccc2nnn(C[C@H]3CC[C@@H](C(=O)c4ccc(OCCC5CCOCC5)cc4)[C@@H]3C(=O)O)c(=O)c2c1 (single isomer, unassigned)"
  Assigned Label: "label 1"
- Molecule: "Cc1cccn(CC2(c3ccc(Oc4ccccc4)cc3)NC(=O)NC2=O)c1=O (centres unmarked)"
  Assigned Label: "label 0"
- Molecule: "Cc1cc(C)cc(COc2ccc(S(=O)(=O)CC(C=C3CCC4(CC3)OCCO4)N(O)C=O)cc2)c1 (centres unmarked)"
  Assigned Label: "label 0"
- Molecule: "Cc1cc(COc2ccc(S(=O)(=O)CC(C3CCC(=NOC=O)CC3)N(O)C=O)cc2)c2ccccc2n1 (centres unmarked)"
  Assigned Label: "label 0"
- Molecule: "Cc1cccn(CC2(c3ccc(Cc4ccccc4)cc3)NC(=O)NC2=O)c1=O (centres unmarked)"
  Assigned Label: "label 0"
- Molecule: "CC(C)C[C@H](NC(=O)[C@H](CCc1ccccc1)N[C@H](CCCCN1C(=O)c2ccccc2C1=O)C(=O)O)C(=O)Nc1ccccc1"
  Assigned Label: "label 1"
- Molecule: "O=C(CC(CCn1nnc2ccccc2c1=O)C(=O)O)c1cc2cc(OCCC3CCCC3)ccc2o1 (racemic)"
  Assigned Label: "label 0"
- Molecule: "CN(C)CCS(=O)(=O)N1CCN(S(=O)(=O)c2cc(F)c(Oc3ccc(Cl)cc3)c(F)c2)[C@@H](C(=O)NO)C1"
  Assigned Label: "label 1"

Data request: Take the molecule Cc1ccc2nnn(C[C@@H]3CC[C@H](C(=O)c4ccc(OCCC5CCOCC5)cc4)[C@H]3C(=O)O)c(=O)c2c1 (racemic) and say whether its IC50 is less than 2 µM.
Data returned: label 1

Data request: Take the molecule CCCCCOc1ccc2c(C(=O)CC(CCn3nnc4ccccc4c3=O)C(=O)O)noc2c1 (racemic) and say whether its IC50 is less than 2 µM.
Data returned: label 0

---

Header: IC50 / Stromelysin-1 (Homo sapiens) / multiple publications
Report the value in nM with no unit label.

In the examples that follow, each entry is paired with its recorded IC50.
- Compound: "O=C(CC(CCn1nnc2ccccc2c1=O)C(=O)O)c1cc2ccc(OCC3CC3)cc2s1 (racemic)"
  Measured Property: "IC50"
  Number: 9700
- Compound: "Cc1cc(COc2ccc(S(=O)(=O)CC(c3ccccc3C)N(O)C=O)cc2)c2cc(F)ccc2n1 (centres unmarked)"
  Measured Property: "IC50"
  Number: 2900
- Compound: "CNC(=O)[C@H](CCCCNC(=O)OC(C)(C)C)NC(=O)[C@H](CC(C)C)[C@H](CSc1ccc(O)cc1)C(=O)NO"
  Measured Property: "IC50"
  Number: 15
- Compound: "CCCCCc1ccc(C(=O)Nc2ccc(S(=O)(=O)N[C@H](Cc3ccccc3)C(=O)NO)cc2)cc1"
  Measured Property: "IC50"
  Number: 30
- Compound: "O=C(O)[C@H](CCC(=O)N1CCc2ccccc21)NS(=O)(=O)c1ccc(-c2ccccc2)cc1"
  Measured Property: "IC50"
  Number: 500
- Compound: "CCC(CC)C(=O)N1CCC(CC(CS(=O)(=O)c2ccc(OCc3cc(C)nc4ccccc34)cc2)N(O)C=O)C(C)C1 (centres unmarked)"
  Measured Property: "IC50"
  Number: 700

Data request: Request: IC50, test system Stromelysin-1 (Homo sapiens), entry Cc1cc(Cl)cc(COc2ccc(S(=O)(=O)CC(C=C3CCC(=NO)CC3)N(O)C=O)cc2)c1 (centres unmarked)
Data returned: 25000

Data request: Request: IC50, test system Stromelysin-1 (Homo sapiens), entry C=CC[C@H](C(=O)NO)[C@@H](CC(C)C)C(=O)N[C@H](C(=O)NC)C(C)(C)C
Data returned: 80

Data request: Request: IC50, test system Stromelysin-1 (Homo sapiens), entry O=C(CC(CCn1nnc2ccccc2c1=O)C(=O)O)c1cc2cc(OCCc3ccc(Cl)cc3)ccc2o1 (racemic)
Data returned: 25000
